Taken from patent US20240174637A1.

- Target desc: GRK2 (Homo sapiens)
- Sequence (P25098 whole entry): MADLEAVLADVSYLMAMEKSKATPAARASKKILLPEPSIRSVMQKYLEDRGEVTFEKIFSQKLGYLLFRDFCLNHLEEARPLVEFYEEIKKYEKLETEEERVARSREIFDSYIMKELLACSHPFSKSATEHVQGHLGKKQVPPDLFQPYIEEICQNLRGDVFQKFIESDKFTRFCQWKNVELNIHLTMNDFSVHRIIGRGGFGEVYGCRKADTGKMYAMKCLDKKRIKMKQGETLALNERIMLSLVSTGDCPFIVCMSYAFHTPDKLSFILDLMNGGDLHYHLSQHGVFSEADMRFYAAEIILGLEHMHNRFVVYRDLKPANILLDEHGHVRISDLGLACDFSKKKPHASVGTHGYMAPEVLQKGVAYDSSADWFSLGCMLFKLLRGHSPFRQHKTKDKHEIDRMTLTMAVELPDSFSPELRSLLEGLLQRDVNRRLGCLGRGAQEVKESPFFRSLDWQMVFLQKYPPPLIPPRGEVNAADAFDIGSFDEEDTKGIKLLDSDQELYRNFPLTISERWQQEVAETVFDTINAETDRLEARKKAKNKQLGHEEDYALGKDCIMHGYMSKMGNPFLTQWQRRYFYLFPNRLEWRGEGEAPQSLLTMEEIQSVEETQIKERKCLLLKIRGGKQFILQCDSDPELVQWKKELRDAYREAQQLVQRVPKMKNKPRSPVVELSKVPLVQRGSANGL
- Assay explanation: GRK2 Inhibition Assay (TR-FRET, Example 1)
- Type: biochemical
- Cond: Table 4; Example 1 assay; read-out: Enzymatic GRK2 IC50: Av IC50 GRK2
Structures can show the parent of a compound that is named as a salt.
Value type: pIC50
Answers are plain numbers, as −log10 of the molar value.

Consider the worked cases shown below.
Compound	pIC50
C[C@@H](NC(=O)c1cccc(NCc2nnc(-c3ccncn3)n2C)c1)c1cccc(OCCCCCCOCCOCCOCCCC(=O)Nc2cccc3c2CN(C2CCC(=O)NC2=O)C3=O)c1 (stereo partly shown)	7.78
C[C@@H](NC(=O)c1cccc(NCc2nnc(-c3ccncn3)n2C)c1)c1cccc(C(=O)N2CCC(CN3CCN(c4ccc5c(c4)CN(C4CCC(=O)NC4=O)C5=O)CC3)CC2)c1 (stereo partly shown) [Compound D122, hydrochloride]	7.91
C[C@@H](NC(=O)c1cccc(NCc2nnc(-c3ccncn3)n2C)c1)c1cccc(OCCCCCCOCCOCCOCCCCCC(=O)N2CCN(c3ccc4c(c3)CN(C3CCC(=O)NC3=O)C4=O)CC2)c1 (stereo partly shown)	7.60
C[C@@H](NC(=O)c1cccc(NCc2nnc(-c3ccncn3)n2C)c1)c1cccc(OCCCCCOCCCOCCNc2ccc3c(c2)CN(C2CCC(=O)NC2=O)C3=O)c1 (stereo partly shown)	7.54
C[C@@H](NC(=O)c1cccc(NCc2nnc(-c3ccncn3)n2C)c1)c1cccc(OCCCCN2CCN(c3ccc4c(c3)CN(C3CCC(=O)NC3=O)C4=O)CC2)c1 (stereo partly shown)	7.55
C[C@@H](NC(=O)c1cccc(NCc2nnc(-c3ccncn3)n2C)c1)c1ccc(OCC(=O)N2CCN(c3ccc4c(c3)CN(C3CCC(=O)NC3=O)C4=O)CC2)cc1 (stereo partly shown)	7.99
C[C@@H](NC(=O)c1cccc(NCc2nnc(-c3ccncn3)n2C)c1)c1ccc(OCCCCN2CCN(c3ccc4c(c3)CN(C3CCC(=O)NC3=O)C4=O)CC2)cc1 (stereo partly shown) [Compound D175, hydrochloride]	7.99
Cc1ncsc1-c1ccc([C@H](C)NC(=O)[C@@H]2C[C@@H](O)CN2C(=O)[C@@H](NC(=O)COCCCOCCCCCOc2cccc([C@@H](C)NC(=O)c3cccc(NCc4nnc(-c5ccncn5)n4C)c3)c2)C(C)(C)C)cc1	7.84

Now for the compound whose pIC50 we want.
Ask: Which measured pIC50 belongs to CN[C@@H](C)C(=O)N[C@H](C(=O)N1CCC[C@H]1c1nc(C(=O)c2cccc(OCc3cn(CCCCCCOc4cccc([C@@H](C)NC(=O)c5cccc(NCc6nnc(-c7ccncn7)n6C)c5)c4)nn3)c2)cs1)C1CCCCC1 , tested on GRK2 (Homo sapiens)?
Reply: 8.06
